# STUDY_SYSTEM: SpSla1-D1-D2
# ASSAY_INFO: SPOT peptide array binding signal intensity (averaged, normalized) (arbitrary units (background-subtracted, floor 0; scale differs between SH3 domains)); higher = stronger binding of the SH3 domain to the peptide
READOUT_TYPE: SPOT peptide array binding signal intensity
The answer should be a number; do not append a unit.

QUERY: Kindly indicate its recorded SPOT peptide array binding signal intensity. Item: RKRAPTPPAPSRSEK
RESULT: 199

QUERY: Please give the documented SPOT peptide array binding signal intensity of VNIPSPSSSPPPIPK
RESULT: 2

QUERY: Kindly indicate its recorded SPOT peptide array binding signal intensity. Item: APPPPPRRATPEKKP
RESULT: 112

QUERY: Item KKAPPPVVKPKPRNF : provide SPOT peptide array binding signal intensity
RESULT: 5.5

QUERY: Please give the documented SPOT peptide array binding signal intensity of SSAAPPPPPRRATPE
RESULT: 62

QUERY: Let me know recorded SPOT peptide array binding signal intensity for LLLLFVPDSPYDPAI , thanks.
RESULT: 3

QUERY: Name the recorded SPOT peptide array binding signal intensity of the binder listed here: GDHPKGPPPPPPPDE
RESULT: 9

QUERY: Give the reported SPOT peptide array binding signal intensity for this binder. PSTMDFPKLPSFQNS
RESULT: 4

Cited source: the supplement of paper PMC4466140
